Sourced from PubChem BioAssay (NCI)

# System: SNB-75 CNS
# measurement notes: NCI-60 one-dose screen, 48 h
# experimental conditions: 10 µM unless noted
About 83,000 compounds went through this panel and 20% of them were active in at least one assay; those are over-represented in the sample as a whole. Calls of active or inactive are those of the source. The calls were made as follows: active = growth percent below 10; inactive = the rest.
Result category, one only: active, inactive

For CCOC(=O)C1=C(c2ccccc2)N=c2s/c(=C/c3ccc(Br)cc3)c(=O)n2C1c1ccc(O)cc1 (centres undefined) , what call appears in the results of this test?
inactive

Check the results log: what was the call for `Brc1ccc(-c2cnc3nonc3n2)cc1` ?
inactive

Record lookup: outcome of this test for `N#Cc1c(-c2cccc([N+](=O)[O-])c2)cc(-c2ccc(Nc3nc(Nc4ccc(F)cc4)nc(Nc4ccc(F)cc4)n3)cc2)nc1N` ?
inactive

Hi, sorry to bother you, what did the test record for Cc1ccc(-c2cc(C(=O)N3N=C(c4ccc(N)cc4)CC3c3ccc(Cl)cc3)c3ccccc3n2)cc1 (centres undefined) ?
active

Which outcome was assigned to `COc1cc(C(=O)/C=C/c2c(-c3cccs3)nc3ccccn23)cc(OC)c1OC` in this test?
active

# lookup: test call for Nc1n[nH]c2ccc([C@@H]3Nc4cc5[nH]ncc5cc4[C@H]4C5CCC(C5)[C@@H]34)cc12 (some centres undefined)
active

What did the test return for `COc1ccc2nc3ccccc3c(NCc3ccc(F)cc3)c2c1` ?
inactive

Check the results log: what was the call for `COc1cc2c3c(c1O)-c1ccccc1[C@@H]1OC(=O)N(CC2)[C@H]31` ?
inactive

Kindly provide the recorded test outcome for the following compound: `Nc1nc(C(=O)N/N=C/c2ccc(N3CCOCC3)cc2)nn1-c1ccc(S(N)(=O)=O)cc1`
inactive

Called result for `N#Cc1c(N2CCOCC2)nc(=S)[nH]c1-c1ccccc1`
inactive

Record request — test call for `COc1cccc(OC)c1Oc1c(-c2nc3ccccc3s2)c(C)nn1-c1ccccc1`
inactive

What was the test verdict on `CC1(C)CC[C@]2(C(=O)N3CCOCC3)CC[C@]3(C)C(=CC[C@@H]4[C@@]5(C)C/C(=C/c6ccncc6)C(=O)C(C)(C)[C@@H]5CC[C@]43C)[C@@H]2C1` ?
inactive

Lab log entry: `CCCCCCCCNc1cc2c3c(c1)CCCN3CCC2` — outcome as called in the assay?
inactive

What did this assay record as the result for `CC(=O)N(Cc1ccccc1)c1nc2ccc(O)c(CN(C)C)c2s1` ?
inactive

Returns: the outcome recorded for `O=C(Nc1ccc(F)cc1)Nc1ccccc1CNc1nc(Nc2ccc(OCCN3CCCC3)cc2)ncc1Cl` in this assay.
active

What was the test verdict on `COc1cc(Nc2ncccc2NC(=O)c2cn(Cc3cccc(Oc4ccccc4)c3)nn2)cc(OC)c1` ?
inactive

// outcome(item) with item = `NC(=O)c1ccc(NC(=O)c2oc3ccccc3c2-c2cnn(-c3ccccc3)c2)cc1`
active

Hi team, can someone confirm the assay call for O=C1Nc2ccccc2C2c3cccn3-c3ccccc3N12 (centres undefined) ?
inactive

Could you please tell me the result logged for COc1ccc(C2=NN(C(C)=O)C(c3ccc(Oc4ccnc5cc(Cl)ccc45)c(OC)c3)C2)cc1 (centres undefined) in this assay?
inactive

What classification did `O=C(/C=C/c1ccc(Br)cc1)c1ccc(-n2cc(CN3CCN(c4cc5c(cc4F)c(=O)c(C(=O)O)cn5C4CC4)CC3)nn2)cc1` end up with in this test?
inactive

Identify the outcome logged in this assay for the compound shown: `CCOC(=O)c1c(NC(=O)c2ccc(OC)cc2)sc2c(CN(C)C)c(O)ccc12`
inactive

Please let me know the test result on file for `Cn1cc(-c2nonc2-c2c[nH]c3ccc(F)cc23)c2cc(Br)ccc21` .
inactive

Please indicate how the test categorized `C#CCOc1ccc2ncnc(Nc3cccc(NC(=O)CCl)c3)c2c1` .
inactive

Tell me the recorded outcome of this test for `Cn1ccnc1C(=O)/C=C/c1ccc(C(=O)Nc2ccc(F)cc2)cc1` .
inactive

Test call, this compound: `Cn1cc(-c2csc(-c3cn(C(=O)OC(C)(C)C)c4ccccc34)n2)c2ccnc(Cl)c21`
inactive

Hello, I am checking results. What call was entered for `CCC/C(=N\NC(N)=O)C(OC)OC` ?
inactive

# fetch the recorded call for O=C1OCC2=C1C(c1cccc(C(F)(F)F)c1)c1cc3c(cc1N2CCO)OCO3 (centres undefined) here
inactive

Check the results log: what was the call for `COc1ccc(C/C(C)=C(/c2ccc(OCCN3CCCCCC3)cc2)c2ccc(OC(=O)NCc3ccccc3)cc2)cc1` ?
inactive

Called result for `Cc1ccc(-c2nc(C(Cl)Cl)nc3cc(C)nn23)cc1`
active

Hi, do you know how `Cn1cc(-c2nc(-c3c[nH]c4ccncc34)cs2)c2cc(Br)ccc21` came out in this test?
active

Call for entry `COc1ccc(Cl)cc1Nc1nc(C(F)(F)F)ccc1C(=O)N/N=C/c1ccccc1Cl` :
inactive

Assay outcome for `O=C(CCCCl)NNc1nccc(Nc2ccc(S(=O)(=O)Nc3ccncc3)cc2)n1` : what was it?
inactive

For COc1cc(C2=NN(C(C)=O)C(c3ccc(N(C)C)cc3)C2)cc(OC)c1OC (centres undefined) , which call appears in the assay record?
inactive

Look up the recorded call for `CNC(=O)c1cc(Oc2ccc3nc(NC(=O)Nc4ccc(Cl)c(Cl)c4)sc3c2)ccn1` in this test.
active

// param item: `COc1ccc(/C=C/C(=O)c2cc3c(N)c(C(=O)Nc4ccc(OC)cc4)sc3nc2C)cc1` ; yields the recorded call
active

Entry `COc1cc(C(=O)c2c(-c3ccccc3)oc3c(OC)cccc23)cc(OC)c1O` : call = ?
inactive

Hello, I am checking results. What call was entered for `Cn1c(/C=C/[N+](=O)[O-])cc2ccccc21` ?
inactive

Write down the call the test reported for this compound. Item: `O=C(/C=C/c1cccc(Cl)c1)c1cccc(OCCCCOc2cccc(C(=O)/C=C/c3cccc(Cl)c3)c2)c1`
inactive

Please share the test call associated with `O=C(CBr)CN1C(=O)c2ccccc2C1=O` .
inactive
